tested on: IL-12 mRNA; experiment: IL-12 mRNA in LPS-activated primary murine macrophages; format: cell-based, mouse; details: 150 nM, −IFN, LPS; average of 3 treatments
In the oligonucleotide strings, read from the 5' end, every base follows the letter of its sugar. An asterisk marks phosphorothioate; unmarked linkages are phosphodiester. Other units and linkages are bracketed, terminal groups are in braces. A string of capitals states the bases alone. e = 2'-O-(2-methoxyethyl) (MOE); [5mC] = 5-methylcytosine; d = 2'-deoxy (DNA)
The entries below come with measured IL-12 mRNA expression, % UTC values attached.
property: IL-12 mRNA expression, % UTC (% UTC)

{"substance": "289606 (antisense CCUUCCCUGAAGGUUCCUCC; all 2'-MOE, all C 5-methyl, all phosphorothioate, T or U not given here) [compound 289606]", "property": "IL-12 mRNA expression, % UTC", "unit label": "% UTC", "recorded number": 99}
{"substance": "229927 (antisense e[5mC]*e[5mC]*eA*e[5mC]*eA*dT*dT*dG*dA*dG*dT*dT*dT*d[5mC]*dT*eT*eT*eA*eA*eG) [compound 229927]", "property": "IL-12 mRNA expression, % UTC", "unit label": "% UTC", "recorded number": 53}
{"substance": "342683 (antisense CCTTCCCTGAAGGTTCCTCCTT; scrambled control, further chemistry not given here) [compound 342683]", "property": "IL-12 mRNA expression, % UTC", "unit label": "% UTC", "recorded number": 165}

====

System: A549 cells
Assay: Cell cycle assay in A549 cells
Assay type: cell-based, human
Settings: A549 cells, 150 nM, 24 hours; relative to the untreated control cells in that phase
Protocol: In accordance with the present invention, certain oligomeric compounds targeting miRNAs were selected for dose response studies. Using the cell cycle assay described above, the cell cycle profiles of HeLa or A549 cells treated with varying concentrations of oligomeric compounds of the present invention were assessed. Concomittent decreases in the percentage of cells in G1-phase of the cell cycle and increases in the percentage of hypodiploid (subG1) cells were also observed. […]
property: % cells in cell cycle phase: subG1 (%)

{"substance": "338769 (antisense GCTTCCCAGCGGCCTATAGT; all 2'-MOE, all phosphorothioate, methylation of C not given here) [compound 338769]", "recorded number": 341}
{"substance": "340350 (antisense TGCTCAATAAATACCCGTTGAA; all 2'-MOE, all phosphorothioate, methylation of C not given here) [compound 340350]", "recorded number": 402}
{"substance": "338637 (antisense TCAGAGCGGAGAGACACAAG; all 2'-MOE, all phosphorothioate, methylation of C not given here) [compound 338637]", "recorded number": 216}
{"substance": "338836 (antisense TCCTCGGTGGCAGAGCTCAG; all 2'-MOE, all phosphorothioate, methylation of C not given here) [compound 338836]", "recorded number": 178}

====

The entries below come with measured PPAR gamma mRNA values attached.
tested on: PPARγ; assay: PPARγ mRNA expression in adipocytes (real-time PCR); assay type: cell-based, human; conditions: differentiating adipocytes transfected with oligomeric compound
In the oligonucleotide strings, read from the 5' end, every base follows the letter of its sugar. An asterisk marks phosphorothioate; unmarked linkages are phosphodiester. Other units and linkages are bracketed, terminal groups are in braces. A string of capitals states the bases alone. e = 2'-O-(2-methoxyethyl) (MOE); [5mC] = 5-methylcytosine; d = 2'-deoxy (DNA)

{"substance": "327960 (antisense eG*eT*e[5mC]*eT*eG*eT*e[5mC]*eA*eA*eT*eT*e[5mC]*eA*eT*eA*eG*eG*eT*e[5mC]*eA*eT) [compound 327960]", "PPAR gamma mRNA": "76 percentage of untreated control (UTC)"}
{"substance": "328400 (antisense eA*eG*eT*eT*e[5mC]*dA*dA*dA*dA*d[5mC]*dT*d[5mC]*dA*dA*dT*e[5mC]*e[5mC]*e[5mC]*eA*eA) [compound 328400]", "PPAR gamma mRNA": "67 percentage of untreated control (UTC)"}
